Provenance of the data: patent US12559492B2

We begin with a simple list: items and their reported DC50.
Molecular target: BRAF^V600E protein (Homo sapiens, UniProt P15056, V600E)
Sequence (P15056 whole entry V600E): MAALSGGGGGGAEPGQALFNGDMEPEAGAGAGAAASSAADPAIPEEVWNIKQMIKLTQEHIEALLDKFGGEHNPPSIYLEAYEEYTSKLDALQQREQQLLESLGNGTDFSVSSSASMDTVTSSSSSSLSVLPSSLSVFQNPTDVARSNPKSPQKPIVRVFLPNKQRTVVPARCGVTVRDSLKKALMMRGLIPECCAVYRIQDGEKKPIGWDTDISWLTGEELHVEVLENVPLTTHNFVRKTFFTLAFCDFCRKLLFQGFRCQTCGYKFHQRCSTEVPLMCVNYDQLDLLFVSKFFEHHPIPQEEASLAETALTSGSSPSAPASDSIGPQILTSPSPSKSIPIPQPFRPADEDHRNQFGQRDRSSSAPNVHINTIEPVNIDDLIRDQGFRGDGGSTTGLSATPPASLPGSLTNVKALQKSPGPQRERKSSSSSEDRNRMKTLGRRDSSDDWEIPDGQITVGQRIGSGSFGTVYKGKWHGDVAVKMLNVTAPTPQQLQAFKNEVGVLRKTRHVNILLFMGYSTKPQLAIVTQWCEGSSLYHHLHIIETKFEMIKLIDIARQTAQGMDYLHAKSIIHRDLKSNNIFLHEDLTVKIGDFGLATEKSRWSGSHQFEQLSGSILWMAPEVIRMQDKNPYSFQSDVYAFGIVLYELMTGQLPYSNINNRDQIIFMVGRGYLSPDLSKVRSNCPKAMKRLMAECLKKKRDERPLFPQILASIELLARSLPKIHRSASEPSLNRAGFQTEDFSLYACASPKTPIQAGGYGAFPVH
Test: HiBiT cellular BRAF V600E degradation assay
Type: cell-based
Conditions: A375.10 cells (HiBiT tag knocked in at N-terminal of BRAF V600E), 24 h incubation; concentration at which 50% of total cellular BRAF V600E is degraded
recorded_endpoint: DC50 (nM)

CCN(C)S(=O)(=O)Nc1ccc(F)c(C(=O)c2c[nH]c3ncc(-c4cnc(N5CCN(C(=O)CN6CCC(c7ccc8c(N9CCC(=O)NC9=O)nn(C)c8c7)CC6)CC5)nc4)cc23)c1F [Example 34]; 2.52
CCN(C)S(=O)(=O)Nc1cccc(C(=O)c2c[nH]c3ncc(-c4cnc(N5CCN(C(=O)CN6CCC(c7ccc(NC8CCC(=O)NC8=O)cc7)C(F)(F)C6)CC5)nc4)cc23)c1F (stereo not shown) [Example 100]; 9.52
CCN(C)S(=O)(=O)Nc1ccc(F)c(C(=O)c2c[nH]c3ncc(-c4ccc(N5CCN(C(=O)CC6(O)CCN(c7ccc(NC8CCC(=O)NC8=O)cc7F)CC6)CC5)cc4C)cc23)c1F (stereo not shown) [Example 189]; 58.4
CCN(C)S(=O)(=O)Nc1cccc(C(=O)c2c[nH]c3ncc(-c4cnc(N5CCN(C(=O)CN6CCC(c7ccc(NC8CCC(=O)NC8=O)cc7F)CC6)CC5)nc4)cc23)c1F (stereo not shown) [Example 97]; 6.62
CCN(C)S(=O)(=O)Nc1ccc(F)c(C(=O)c2c[nH]c3ncc(-c4cc(F)c(N5CCN(C(=O)CC6(O)CCN(c7ccc(NC8CCC(=O)NC8=O)cc7F)CC6)CC5)cc4F)cc23)c1F (stereo not shown) [Example 221]; 5.65
CCN(C)S(=O)(=O)Nc1cccc(C(=O)c2c[nH]c3ncc(-c4ccc(N5CCN(C(=O)CC6(O)CCN(c7ccc(NC8CCC(=O)NC8=O)cc7F)C6)CC5)nc4)cc23)c1F (stereo not shown) [Example 114]; 2.29
CCN(C)S(=O)(=O)Nc1ccc(F)c(C(=O)c2c[nH]c3ncc(-c4ccc(N5CCN(C(=O)CN6CCC(c7ccc(O[C@H]8CCC(=O)NC8=O)cc7)CC6)CC5)nc4)cc23)c1F [Example 73]; 12.3
